System: SW780 (Bladder Carcinoma)
ASSAY_EXPLANATION: combination Emax (second highest fraction inhibited in the dose matrix, 72 h); higher = more inhibition; extreme values may be limits of the assay
Field: combination Emax. Provide a value for each of the compounds that follow.
One number for each entry.

Recorded combination Emax, per entry:
>>> observed_measurement("Cc1c2c(nn1C)CSCc1cc(n(C)n1)CSc1cc(c3ccccc3c1)OCCCc1c(C(=O)O)n(C)c3c-2c(Cl)ccc13 [AZD5991] + CCN(CCO)CCCOc1ccc2c(Nc3cc(CC(=O)Nc4cccc(F)c4)[nH]n3)ncnc2c1 [AZD2811] (first compound max 1 µM, 7x7, partner max 1 µM)")
0.213
>>> observed_measurement("COc1cccc(OCCCN)c1-c1cc(Nc2cnc(C#N)cn2)n[nH]1 [Prexasertib] + C=CCn1c(=O)c2cnc(Nc3ccc(N4CCN(C)CC4)cc3)nc2n1-c1cccc(C(C)(C)O)n1 [AZD1775] (first compound max 1 µM, partner max 1 µM)")
0.303

Continue with the compound presented below.
Summary for this compound, CN(CCO)CC[C@H](CSc1ccccc1)Nc1ccc(S(=O)(=O)NC(=O)c2ccc(N3CCC([C@@H](O)c4ccccc4-c4ccc(Cl)cc4)CC3)cc2)cc1S(=O)(=O)C(F)(F)F [AZD4320] + CN(C)CCCOc1ccc(-c2ccc3ncc4c(c3c2)n(C2CCOCC2)c(=O)n4C)cn1 [AZD0156] (first compound max 1 µM, 7x7, partner max 1 µM) : combination Emax is 0.521
